# Target under test: T1, PUF4 RNA-binding domain (Saccharomyces cerevisiae, UniProt P25339 537-888)
# T1 sequence: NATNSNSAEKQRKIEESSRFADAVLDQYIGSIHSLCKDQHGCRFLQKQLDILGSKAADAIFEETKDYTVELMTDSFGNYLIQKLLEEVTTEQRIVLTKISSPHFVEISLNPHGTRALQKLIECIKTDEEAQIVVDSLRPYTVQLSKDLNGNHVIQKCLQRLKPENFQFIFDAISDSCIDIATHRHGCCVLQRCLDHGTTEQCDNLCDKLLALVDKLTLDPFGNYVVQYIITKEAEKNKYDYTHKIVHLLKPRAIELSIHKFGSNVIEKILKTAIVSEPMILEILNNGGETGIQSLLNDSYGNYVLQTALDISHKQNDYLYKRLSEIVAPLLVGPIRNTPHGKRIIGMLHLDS
# Test details: Mg; RNA-MaP; 20 mM Na-HEPES pH 7.4, 30 mM KOAc, 0.75 mM MgCl2, 0.1% Tween-20, 5% glycerol, 0.1 mg/mL BSA, 2 mM DTT; 25 C; 0.0125-409.6 nM protein
# Condition parameters: tags: N-His6-TEV cleaved; C-SNAP kept, Cy3B-labelled; label: tethered on chip by stalled RNA polymerase
Readout kind: pKd
Interpret pKd as the negative base-10 log of the concentration measured in mol/L.

Examples with answers:
UCUCUUUGUAGUUUUAUCUCUU (ssRNA) [Ib_S1_P5E.1_K5.1_C5.1_H5.1_A5.1_[T5G]_[A7T]_F5.1_T5.1]
7.57
Ic_S2_P4E.1_K4.1_C4.1_H4.1_A4.1_[A6G]_[T7C]_F4.1_[T8G]_[A9G]_T4.1 (ssRNA) RNA: UUUGAUUAAUAUGAUAUCGUUCUUUCUUGUAUGCGGUUCUUUCUCGAUAUCAUAUUAAUCUUU
5.88
Ic_S4_P5E.1_K5.1_C5.1_H5.1_A5.1_[T5C]_[T6A]_[A7G]_F5.1_[T9C]_[A10C]_T5.1 (ssRNA) RNA: UUUGACAACUGAUCGUUCUUUCUUGUACAGUCCUUCUUUCUCGAUCAGUUGUCUUU
7.88
Ic_S2_P5E.1_K5.1_C5.1_H5.1_A5.1_[T5G]_[A7C]_F5.1_[T8A]_[T9C]_[A10T]_T5.1 (ssRNA) RNA: UUUGAUUAAUAUGAUAUCGUUCUUUCUUGUAGUCACUUUCUUUCUCGAUAUCAUAUUAAUCUUU
6.14

// pKd lookup, binder = ACAAACGAUAUAUUAUUAAAACAAAC (ssRNA) [Id_ii_S3_P5E.3_K5.2_C5.2_[C-2G]_[T-1A]_H5.2_A5.1_F5.1_T5.2_[T11A]] , result: 6.15

// pKd lookup, binder = Id_ii_S4_P5E.4_K5.3_C5.2_[C-2G]_H5.3_A5.1_F5.1_T5.2_[A12T] (ssRNA) RNA: UUUGACAACUGAUCGUUCUUUCUGUACACUUAUUAUUUUCUUUCUCGAUCAGUUGUCUUU , result: 8.58

// pKd lookup, binder = UCUCUUCGUGUAUAUAUCUCUCUU (ssRNA) [Id_ii_S1_P3E.2_K3.1_C3.2_[T-1G]_H3.1_A3.1_F3.1_T3.2_[A10C]] , result: 8.12

// pKd lookup, binder = Ic_S4_P5E.1_K5.1_C5.1_H5.1_A5.1_[T6A]_[A7G]_F5.1_[T8C]_[T9A]_[A10T]_T5.1 (ssRNA) RNA: UUUGACAACUGAUCGUUCUUUCUUGUAUAGCAUUUCUUUCUCGAUCAGUUGUCUUU , result: 7.25

// pKd lookup, binder = Ic_S2_P5E.1_K5.1_C5.1_H5.1_A5.1_[T5C]_[T6G]_[A7T]_F5.1_[T8C]_[A10G]_T5.1 (ssRNA) RNA: UUUGAUUAAUAUGAUAUCGUUCUUUCUUGUACGUCUGUUCUUUCUCGAUAUCAUAUUAAUCUUU , result: 5.90

// pKd lookup, binder = Id_ii_S2_P3E.2_K3.1_C3.2_[T-1C]_H3.1_A3.1_F3.1_T3.2_[T9C]_[A10G] (ssRNA) RNA: UUUGAUUAAUAUGAUAUCGUUCUUUCUCCUGUAUAUACGUUCUUUCUCGAUAUCAUAUUAAUCUUU , result: 8.37

// pKd lookup, binder = UCUCUUUGUAUCUACUCUCUU (ssRNA) [Ic_S1_P4E.1_K4.1_C4.1_H4.1_A4.1_[A6C]_F4.1_[T8A]_[A9C]_T4.1] , result: 7.54

// pKd lookup, binder = Ie_S2_P4E.1_K4.1_C4.1_H4.1_[+1TC]_A4.1_F4.1_T4.1 (ssRNA) RNA: UUUGAUUAAUAUGAUAUCGUUCUUUCUUUCGUAUAUUAUUCUUUCUCGAUAUCAUAUUAAUCUUU , result: 8.07

// pKd lookup, binder = Ic_S2_P4E.1_K4.1_C4.1_H4.1_A4.1_[T5A]_[A6T]_F4.1_[T8C]_[A9T]_T4.1 (ssRNA) RNA: UUUGAUUAAUAUGAUAUCGUUCUUUCUUGUAAUUCUUUCUUUCUCGAUAUCAUAUUAAUCUUU , result: 7.32

// pKd lookup, binder = Ic_S2_P4E.1_K4.1_C4.1_H4.1_A4.1_[T5G]_[A6T]_[T7G]_F4.1_[T8C]_[A9T]_T4.1 (ssRNA) RNA: UUUGAUUAAUAUGAUAUCGUUCUUUCUUGUAGUGCUUUCUUUCUCGAUAUCAUAUUAAUCUUU , result: 6.32

// pKd lookup, binder = UCUCUUUCCUGUAUAUAUAUCUCUU (ssRNA) [Id_iii_S1_P3E.5_K3.1_C3.3_[T-1C]_H3.1_A3.1_F3.1_T3.2] , result: 8.38

// pKd lookup, binder = UCUCUUUGUAUAUUCCUCAUCUCUU (ssRNA) [Ie_S1_P4E.1_K4.1_C4.1_H4.1_A4.1_F4.1_[+8CCTC]_T4.1] , result: 8.17

// pKd lookup, binder = Id_ii_S2_P4E.3_K4.2_C4.2_[T-1A]_H4.2_A4.1_F4.1_T4.2_[G10C]_[T11C] (ssRNA) RNA: UUUGAUUAAUAUGAUAUCGUUCUUUCUCAUAUAUAUUACCUUCUUUCUCGAUAUCAUAUUAAUCUUU , result: 7.99

// pKd lookup, binder = UCUCUUUGUAUCUCUUCUCUU (ssRNA) [Ic_S1_P4E.1_K4.1_C4.1_H4.1_A4.1_[A6C]_F4.1_[T8C]_[A9T]_T4.1] , result: 6.28

// pKd lookup, binder = UCUCUUACUAUAUAUUACGUCUCUU (ssRNA) [Id_ii_S1_P4E.3_K4.2_C4.2_[C-2A]_[T-1C]_H4.2_A4.1_F4.1_T4.2_[G10C]_[T11G]] , result: 7.28

// pKd lookup, binder = Ie_S2_P3E.2_K3.1_C3.2_H3.1_A3.1_F3.1_[+8TCC]_T3.2 (ssRNA) RNA: UUUGAUUAAUAUGAUAUCGUUCUUUCUCUUGUAUAUAUCCUAUUCUUUCUCGAUAUCAUAUUAAUCUUU , result: 8.55

// pKd lookup, binder = Ic_S4_P5E.1_K5.1_C5.1_H5.1_A5.1_[A7T]_F5.1_[T8C]_[T9A]_T5.1 (ssRNA) RNA: UUUGACAACUGAUCGUUCUUUCUUGUAUUUCAAUUCUUUCUCGAUCAGUUGUCUUU , result: 6.35
